Biological target: MOR-1 (Mus musculus, UniProt P42866)
Construct: expressed in transfected cells; host or cells: CHO
Experiment: Competition binding against 125I-IBNtxA in MOR-1/CHO membranes
Details: read-out: Affinity (Ki nM) MOR-1; 125I-IBNtxA (0.1 nM), CHO membranes, cloned mouse receptor
recorded_metric: Ki (nM)
Just the number please, in nM, no unit attached.

Challenge: Please look at this molecule and report its Ki: CC[C@@H]1CN2CCc3c([nH]c4cccc(-c5ccoc5)c34)[C@@H]2C[C@@H]1/C(=C\OC)C(=O)OC
Response given: 52

---

Biological target: MOR-1 (Mus musculus, UniProt P42866)
Construct: expressed in transfected cells; host or cells: CHO
Test: Competition binding against 125I-IBNtxA in MOR-1/CHO membranes
Would you mind telling me the reported pKi of each entry?
To interpret pKi, take it as minus log10 of a concentration measured in moles per litre.

Challenge: System MOR-1 (Mus musculus, UniProt P42866). Read-out pKi. Item CC[C@@H]1CN2CCC3(Nc4ccc(Cl)c(OC)c4C3=O)C2C[C@@H]1/C(=C\OC)C(=O)OC (stereo partly shown) . Report value.
Response given: 9.39

Challenge: System MOR-1 (Mus musculus, UniProt P42866). Read-out pKi. Item CC[C@@H]1CN2CCc3c([nH]c4ccc(-c5ccccc5)c(OC)c34)C2C[C@@H]1/C(=C\OC)C(=O)OC (stereo partly shown) . Report value.
Response given: 6.44

Challenge: System MOR-1 (Mus musculus, UniProt P42866). Read-out pKi. Item CC[C@@H]1CN2CC[C@]3(Nc4cccc(-c5ccoc5)c4C3=O)C2C[C@@H]1/C(=C\OC)C(=O)OC (stereo partly shown) . Report value.
Response given: 9.03

---

Target: KOR-1 (Mus musculus, UniProt P33534)
Construct: expressed in transfected cells; host or cells: CHO
Assay: Competition binding against 125I-IBNtxA in KOR-1/CHO membranes
Conditions: 125I-IBNtxA (0.1 nM), CHO membranes, cloned mouse receptor; read-out: Affinity (Ki nM) KOR-1
Threshold 200 nM. Ki below it: yes (1). Ki at it or above: no (0).

Challenge: Does CC[C@@H]1CN2CC[C@@]3(O)C(=Nc4c(-c5ccoc5)ccc(OC)c43)C2C[C@@H]1/C(=C\OC)C(=O)OC (stereo partly drawn) [VM1524] have Ki strictly under 200 nM?
Response given: no (0)

Challenge: Does CC[C@@H]1CN2CC[C@@]3(C(=O)c4c(OC)cccc4N3C)C2C[C@@H]1/C(=C\OC)C(=O)OC (stereo partly drawn) [VM1503] have Ki strictly under 200 nM?
Response given: no (0)

Challenge: Does CC[C@@H]1CN2CC[C@@]3(O)C(=Nc4ccccc43)[C@@H]2C[C@@H]1/C(=C\OC)C(=O)OC [VM1522] have Ki strictly under 200 nM?
Response given: no (0)

Challenge: Does CC[C@@H]1CN2CC[C@@]3(N4CCCCC4)C(=Nc4cccc(OC)c43)[C@@H]2C[C@@H]1/C(=C\OC)C(=O)OC [VM1526] have Ki strictly under 200 nM?
Response given: yes (1)

Challenge: Does CC[C@@H]1CN2CC[C@]3(Nc4cccc(O)c4C3=O)C2C[C@@H]1/C(=C\OC)C(=O)OC (stereo partly drawn) [VM1507] have Ki strictly under 200 nM?
Response given: yes (1)

Challenge: Does CC[C@@H]1CN2CCc3c(n(Cc4ccccc4)c4cccc(OC)c34)[C@@H]2C[C@@H]1/C(=C\OC)C(=O)OC [VM1533] have Ki strictly under 200 nM?
Response given: no (0)

Challenge: Does CC[C@@H]1CN2CCc3c([nH]c4c(-c5ccoc5)ccc(OC)c34)C2C[C@@H]1/C(=C\OC)C(=O)OC (stereo partly drawn) [VM1520] have Ki strictly under 200 nM?
Response given: yes (1)

Challenge: Does CC[C@@H]1CN2CCc3c([nH]c4cccc(-c5ccoc5)c34)[C@@H]2C[C@@H]1/C(=C\OC)C(=O)OC [VM1539] have Ki strictly under 200 nM?
Response given: yes (1)

Challenge: Does CC[C@@H]1CN2CCc3c([nH]c4ccc(-c5ccoc5)c(OC)c34)C2C[C@@H]1/C(=C\OC)C(=O)OC (stereo partly drawn) [VM1519] have Ki strictly under 200 nM?
Response given: yes (1)

Challenge: Does CC[C@@H]1CN2CC[C@]3(Nc4ccccc4C3=O)C2C[C@@H]1/C(=C\OC)C(=O)OC (stereo partly drawn) [VM1508] have Ki strictly under 200 nM?
Response given: yes (1)

Challenge: Does CC[C@@H]1CN2CCC3(Nc4ccc(Cl)c(OC)c4C3=O)C2C[C@@H]1/C(=C\OC)C(=O)OC (stereo partly drawn) [VM1516] have Ki strictly under 200 nM?
Response given: yes (1)
